Tested on: NCI-H1793
assay-comment: relative viability (nuclei count vs DMSO), 5 days (fraction); higher = more cells survive
measurement-parameters: first compound 1 µM

molecule	test-target	relative viability
NC(=O)Nc1cc(-c2cccc(F)c2)sc1C(=O)N[C@H]1CCCNC1 [AZD7762] + Cc1nc(Nc2ncc(C(=O)Nc3c(C)cccc3Cl)s2)cc(N2CCN(CCO)CC2)n1 [Dasatinib] (partner 0.075 µM)	NCI-H1793	0.276
NC(=O)Nc1cc(-c2cccc(F)c2)sc1C(=O)N[C@H]1CCCNC1 [AZD7762] + COc1cc2c(Oc3ccc(NC(=O)C4(C(=O)Nc5ccc(F)cc5)CC4)cc3F)ccnc2cc1OCCCN1CCOCC1 [Foretinib] (partner 0.25 µM)	NCI-H1793	0.608
NC(=O)Nc1cc(-c2cccc(F)c2)sc1C(=O)N[C@H]1CCCNC1 [AZD7762] + Cc1nc(NC(=O)N2CCC[C@H]2C(N)=O)sc1-c1ccnc(C(C)(C)C(F)(F)F)c1 [Alpelisib] (partner 2 µM)	NCI-H1793	0.524
NC(=O)Nc1cc(-c2cccc(F)c2)sc1C(=O)N[C@H]1CCCNC1 [AZD7762] + CCNC(=O)c1noc(-c2cc(C(C)C)c(O)cc2O)c1-c1ccc(CN2CCOCC2)cc1 [Luminespib] (partner 0.01 µM)	NCI-H1793	0.179

* * *

System: SK-LU-1
assay-comment: relative viability (nuclei count vs DMSO), 5 days (fraction); higher = more cells survive
measurement-parameters: first compound 0.1265 µM
readout-kind: relative viability

molecule	reported
O=C(O)c1ccc(-c2c[nH]c3ncc(-c4ccccc4)cc23)cc1C1CCCC1 + C[C@]1(O)C[C@@H](c2nc(-c3ccc4ccc(-c5ccccc5)nc4c3)c3c(N)nccn32)C1 [Linsitinib] (partner 1 µM)	1
O=C(O)c1ccc(-c2c[nH]c3ncc(-c4ccccc4)cc23)cc1C1CCCC1 + O=C(c1cc(Cc2n[nH]c(=O)c3ccccc23)ccc1F)N1CCN(C(=O)C2CC2)CC1 [Olaparib] (partner 8 µM)	0.459
O=C(O)c1ccc(-c2c[nH]c3ncc(-c4ccccc4)cc23)cc1C1CCCC1 + CC(C)C[C@H](NC(=O)[C@H](Cc1ccccc1)NC(=O)c1cnccn1)B(O)O [Bortezomib] (partner 0.002 µM)	1.17
O=C(O)c1ccc(-c2c[nH]c3ncc(-c4ccccc4)cc23)cc1C1CCCC1 + CS(=O)(=O)N1CCN(Cc2cc3nc(-c4cccc5[nH]ncc45)nc(N4CCOCC4)c3s2)CC1 [Pictilisib] (partner 1 µM)	0.604
O=C(O)c1ccc(-c2c[nH]c3ncc(-c4ccccc4)cc23)cc1C1CCCC1 + COc1cccc2cc(-c3nc([C@H]4CC[C@H](C(=O)O)CC4)n4ncnc(N)c34)[nH]c12 [OSI-027] (partner 0.5 µM)	0.391
O=C(O)c1ccc(-c2c[nH]c3ncc(-c4ccccc4)cc23)cc1C1CCCC1 + CC(=O)Nc1cccc(-n2c(=O)n(C3CC3)c(=O)c3c(Nc4ccc(I)cc4F)n(C)c(=O)c(C)c32)c1 [Trametinib] (partner 0.02 µM)	0.591
O=C(O)c1ccc(-c2c[nH]c3ncc(-c4ccccc4)cc23)cc1C1CCCC1 + Cc1nc(Nc2ncc(C(=O)Nc3c(C)cccc3Cl)s2)cc(N2CCN(CCO)CC2)n1 [Dasatinib] (partner 0.075 µM)	0.194
